- system: T1, human CX3CR1 (human, UniProt P49238 1-355)
- T1 sequence: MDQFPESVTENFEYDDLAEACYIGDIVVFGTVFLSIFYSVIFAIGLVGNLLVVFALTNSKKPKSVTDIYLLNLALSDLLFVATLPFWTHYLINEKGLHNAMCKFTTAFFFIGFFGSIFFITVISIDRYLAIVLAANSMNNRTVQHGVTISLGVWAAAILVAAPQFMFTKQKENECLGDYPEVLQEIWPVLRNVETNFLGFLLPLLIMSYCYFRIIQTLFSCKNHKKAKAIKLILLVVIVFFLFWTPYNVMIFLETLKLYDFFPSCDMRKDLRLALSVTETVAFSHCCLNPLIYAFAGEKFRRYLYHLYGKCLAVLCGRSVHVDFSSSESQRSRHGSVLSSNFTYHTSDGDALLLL
- test: cell-based or functional assay
metric name: IC50, fractalkine induced chemotaxis (nM)
Kindly answer with a numeric value in nM, unit omitted.

# binder, metric name, number
data = [
    ("CX3CR1BII026 (VHH, expressed in E. coli as described for the monovalent VHHs) EVQLVESGGGLVQAGGSLRLSCVASGRTFSSYAMGWFRQAPGKERAFVAGISGSASRKYYADSVKGRFTVSRDNARNTVYLQMNSLKPEDTAVYYCAASNSYPKVQFDYYGQGTQVTVSSGGGGSGGGGSGGGGSGGGGSGGGGSGGGGSGGGGSEVQLVESGGGSVQAGESLRLSCAASGSIFSSNAMAWYRQAPGKRRDLVAAINSVGVTKYADSVKGRFTISRDNAKNTVYLQMNSLKPEDTAVYYCTSDPRRGWDTRYWGQGTQVTVSS", "IC50, fractalkine induced chemotaxis", 0.3),
]

Proceeding to the next binder to report its IC50, fractalkine induced chemotaxis.
Q. Reported IC50, fractalkine induced chemotaxis for CX3CR1BII007 (VHH, expressed in E. coli as described for the monovalent VHHs (c-myc, His6 tags there)) EVQLVESGGGLVQAGGSLRLSCVASGRTFSSYAMGWFRQAPGKERAFVAGISGSASRKYYADSVKGRFTVSRDNARNTVYLQMNSLKPEDTAVYYCAASNSYPKVQFDYYGQGTQVTVSSGGGGSGGGGSGGGGSGGGGSGGGGSGGGGSGGGGSKVQLVESGGGLVQPGGSLRLSCATSGTIFSNNAMGWYRQAPGKKRDLVASISSSGSTNYADSVKGRFTVSRDNDKNTGYLQMNSLKPEDTGVYYCTLDARRGWNTAYWGQGAQVTVSS : what is it?
A. 4
